Test system: PPARg:RXRa 270nM:90nM, anti-RXR (NR concentration 270 nM, RXRa partner concentration 90 nM)
METHOD DESCRIPTION: PBM binding z-score (relative to random genomic background probes); higher = stronger binding; sequences stand for … in GC…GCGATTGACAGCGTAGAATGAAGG
Reported PBM binding z-score values are given for each entry in this list.
METRIC: PBM binding z-score

# SEQUENCE CODE, MEASURED NUMBER
data = [
    ("CCTACTGGGCCATTCAGCGGTCATTGATCATATG", 0.538),
    ("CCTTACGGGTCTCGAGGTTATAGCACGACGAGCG", 0.313),
    ("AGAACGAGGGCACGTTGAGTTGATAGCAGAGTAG", 1.42),
    ("CGAACGAGGGCATGAGTTGATAGCGAATGCCGAT", 1.65),
    ("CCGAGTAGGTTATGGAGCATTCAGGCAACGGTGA", 2.08),
    ("ACTAGCAGGCCAAATTTGGGTCACTCAAACAAAG", 1.84),
    ("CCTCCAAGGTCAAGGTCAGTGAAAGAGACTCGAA", 6.06),
    ("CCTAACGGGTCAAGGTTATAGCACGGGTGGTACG", 3.67),
    ("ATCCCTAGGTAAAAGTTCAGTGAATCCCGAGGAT", 4.85),
    ("GATACAGGGGCAGCTAGAGGCCAGAGTATGGAAA", 0.296),
    ("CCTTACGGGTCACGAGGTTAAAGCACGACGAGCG", 7.25),
    ("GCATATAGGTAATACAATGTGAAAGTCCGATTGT", 0.561),
    ("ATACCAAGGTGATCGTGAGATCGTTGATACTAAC", 0.161),
    ("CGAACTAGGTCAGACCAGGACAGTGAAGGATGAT", 5.08),
    ("ATCTCTAGGTAACCATGTTCAGTGAATGCCGAAC", 0.662),
    ("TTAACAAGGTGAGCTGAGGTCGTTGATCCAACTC", 0.987),
    ("GCATAAAGGTAATACAAGGTGAAAGTCCGATTGT", 1.72),
    ("GCAGACAGGTGAAACGCAGGTAAGTCAGGGTGGC", -0.16),
    ("CAAACTAGGTCACTGAGGTCAAAGTCCGTGCGTA", 7.91),
    ("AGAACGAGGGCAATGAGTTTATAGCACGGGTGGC", 0.876),
    ("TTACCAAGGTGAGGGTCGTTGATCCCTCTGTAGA", 2.03),
    ("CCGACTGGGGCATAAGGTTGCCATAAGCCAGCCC", 1.81),
    ("TCTTATAGGTAAACAGGTGAAAGTCCGTAAGTTA", 3.52),
    ("GATACAGGGTCAAGGCCAGAGCACGCGTATTGAT", 5.3),
    ("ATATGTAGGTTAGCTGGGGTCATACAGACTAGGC", 5.38),
    ("CGTCAAAGTTTAACTAAGGTAACGTAAAGCACGC", 1.22),
]
